# MEASURED ON: SMYD3 (Homo sapiens (Human))
# Sequence (Q9H7B4 whole entry): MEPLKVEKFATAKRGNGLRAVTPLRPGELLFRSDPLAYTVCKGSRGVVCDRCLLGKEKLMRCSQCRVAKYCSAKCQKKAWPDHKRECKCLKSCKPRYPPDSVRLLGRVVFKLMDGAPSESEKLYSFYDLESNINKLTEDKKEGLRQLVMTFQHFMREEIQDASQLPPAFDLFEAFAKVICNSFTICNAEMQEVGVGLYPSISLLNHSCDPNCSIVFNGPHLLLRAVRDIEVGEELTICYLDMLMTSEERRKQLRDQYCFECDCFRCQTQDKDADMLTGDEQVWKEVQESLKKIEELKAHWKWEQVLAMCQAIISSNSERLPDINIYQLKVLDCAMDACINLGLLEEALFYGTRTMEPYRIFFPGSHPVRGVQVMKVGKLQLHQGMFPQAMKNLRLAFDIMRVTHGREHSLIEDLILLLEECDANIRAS
# EXPERIMENTAL DETAILS: SMYD3 biochemical assay (SMYD3 enzyme assay on MEKK2 protein substrate, 3H-SAM scintillation proximity assay)
# COND: read-out: SMYD3 Biochem IC50
READOUT: IC50

Sample records with IC50:
1. Cn1nccc1C(=O)N[C@H]1CC[C@H](N)CC1 ... > 100 µM
2. NCCC(=O)N[C@H]1CC[C@H](NC(=O)c2cncnc2O)CC1 ... > 50 µM
3. Cc1cnccc1C(=O)NC(C)C1CCN(C(=O)[C@H](C)N)CC1 (stereo partly drawn) ... > 100 µM
4. N[C@H]1CC[C@H](NC(=O)c2ccncc2F)CC1 ... > 100 µM
5. Cc1cc(C(=O)N[C@H]2CC[C@H](NC(=O)CCN)CC2)ccn1 ... > 100 µM

[ask] Give SMYD3 (Homo sapiens (Human)) IC50 for "Cc1cc2cc(C(=O)N[C@H]3CC[C@H](NC(=O)CCN)CC3)ccc2[nH]1"
[reply] > 50 µM

[ask] // lookup IC50 | system=SMYD3 (Homo sapiens (Human)) | key= "NCCC(=O)N[C@H]1CC[C@H](NS(=O)(=O)c2ccc3c(c2)CC(=O)N3)CC1"
[reply] > 100 µM

[ask] API: value(readout=IC50, system=SMYD3 (Homo sapiens (Human))) for record CC(NC(=O)c1cccc(N)n1)C1CCN(C(=O)[C@H](C)N)CC1 (stereo partly drawn)
[reply] > 100 µM

[ask] Form field - read-out: IC50; system: SMYD3 (Homo sapiens (Human)); submitted item: "NCCC(=O)N[C@H]1CC[C@H](NC(=O)c2ccc3c(c2)CNC3=O)CC1"
[reply] > 100 µM

[ask] Form field - read-out: IC50; system: SMYD3 (Homo sapiens (Human)); submitted item: "N[C@H]1CC[C@H](NC(=O)c2cnccn2)CC1"
[reply] > 100 µM

[ask] For SMYD3 (Homo sapiens (Human)), provide IC50 of "N[C@H]1CC[C@H](NC(=O)Cc2ccc(F)cc2)CC1" please.
[reply] > 100 µM

[ask] What measured IC50 is associated with COc1ccc2cc(C(=O)NC(C)C3CCN(C(=O)[C@H](C)N)CC3)ccc2c1 (stereo partly drawn) on SMYD3 (Homo sapiens (Human))?
[reply] > 100 µM

[ask] Lab note: need IC50 with SMYD3 (Homo sapiens (Human)) for entry CC(NC(=O)[C@H]1CC[C@H](N)CC1)C1CCN(C(=O)[C@H](C)N)CC1 (stereo partly drawn) , please look it up.
[reply] > 100 µM

[ask] For the record "NCCC(=O)N[C@H]1CC[C@H](NC(=O)C2=NNC(=O)CC2)CC1" , what value of IC50 is listed for SMYD3 (Homo sapiens (Human))?
[reply] 15.1 µM
